# experiment_summary: Veliparib plasma pharmacokinetics, cycle 1
# Type: in vivo, human
# conditions: human, plasma, oral, 20 mg, AUC0–8, Day -2; veliparib dose 20 mg (N=16)
assay_endpoint: AUC(0-t) (ng·h/mL)
Give the value, in units of ng·h/mL, as a plain number.

Challenge: Form field: reported AUC(0-t) of C[C@]1(c2nc3c(C(N)=O)cccc3[nH]2)CCCN1
Response given: 540

====

# experiment_summary: Gemcitabine
# Assay type: in vivo, human
# conditions: human, plasma, intravenous, dFdC AUC0-inf, gemcitabine 750 mg/m^2 (N=13), veliparib 20 mg; mean (standard deviation)
assay_endpoint: AUC(0-inf) (ng·h/mL)
Give the value, in units of ng·h/mL, as a plain number.

Challenge: Form field: reported AUC(0-inf) of Nc1ccn([C@@H]2O[C@H](CO)[C@@H](O)C2(F)F)c(=O)n1
Response given: 8220
